Below: a set of entries, each annotated with reported relative viability.
Test system: SK-LU-1
METHOD: relative viability (nuclei count vs DMSO), 5 days (fraction); higher = more cells survive
ASSAY_CONTEXT: first compound 0.253 µM
In your answer, state the number alone without any accompanying words.

| MOLECULE | TESTED_ON | relative viability |
| --- | --- | --- |
| Cc1cnc(-c2cnc(NCCNc3ccc(C#N)cn3)nc2-c2ccc(Cl)cc2Cl)[nH]1 + CC(=O)Nc1cccc(-n2c(=O)n(C3CC3)c(=O)c3c(Nc4ccc(I)cc4F)n(C)c(=O)c(C)c32)c1 [Trametinib] (partner 0.02 µM) | SK-LU-1 | 0.61 |
| O=c1[nH]c2ccccc2n1C1CCN(CCCC(c2ccc(F)cc2)c2ccc(F)cc2)CC1 [Pimozide] + CS(=O)(=O)CCNCc1ccc(-c2ccc3ncnc(Nc4ccc(OCc5cccc(F)c5)c(Cl)c4)c3c2)o1 [Lapatinib] (partner 2 µM) | SK-LU-1 | 0.846 |
| O=c1[nH]c2ccccc2n1C1CCN(CCCC(c2ccc(F)cc2)c2ccc(F)cc2)CC1 [Pimozide] + COc1cc2c(Oc3ccc(NC(=O)C4(C(=O)Nc5ccc(F)cc5)CC4)cc3F)ccnc2cc1OCCCN1CCOCC1 [Foretinib] (partner 0.25 µM) | SK-LU-1 | 0.793 |

Now look at this entry.
Measured relative viability, Cc1cnc(-c2cnc(NCCNc3ccc(C#N)cn3)nc2-c2ccc(Cl)cc2Cl)[nH]1 + Nc1nc2[nH]cc(CCc3ccc(C(=O)N[C@@H](CCC(=O)O)C(=O)O)cc3)c2c(=O)[nH]1 [Pemetrexed] (partner 0.2 µM) : 0.97
